Reference for the values: paper PMC7559897

# Tested on: Candida albicans Y-6359
# Format: cell-based
# reportedConditions: Y-6359, 24 h
# Method: Assays were performed by Trideum Biosciences (Frederick, MD, USA). Isolates were thawed from −80 °C storage and sub-cultured on trypticase soy agar plates at 37 °C prior to experimentation. […] The treated cultures were then incubated for 24 h at 37 °C and pathogen growth was measured by absorbance at 600 nm. […] Each MIC was assigned to the lowest test agent concentration resulting in at least three out of four wells showing no growth based on an optical density (OD) reading of <0.1.
Square brackets hold non-standard residues; d marks the D form. Peptide text beside a SMILES is read from it. Orn = NCCC[C@H](N)C(=O)O
metricName: MIC against Candida albicans Y-6359

Form: molecule = CC[C@H](C)[C@H](NC(=O)[C@H](CCCN)NC(=O)[C@H](C)NC(=O)[C@H](CCCN)NC(=O)[C@H](CC(C)C)NC(=O)[C@H](CCCN)NC(=O)[C@@H](NC(=O)[C@H](CCCN)NC(=O)[C@@H](NC(=O)[C@H](CCCN)NC(=O)[C@H](C)NC(=O)[C@H](CCCN)NC(=O)[C@H](CC(C)C)NC(=O)[C@H](CCCN)NC(=O)[C@@H](N)Cc1ccccc1)[C@@H](C)CC)C(C)C)C(=O)N[C@@H](CCCN)C(=O)N[C@@H](CC(C)C)C(N)=O [RP554] (H-F[Orn]L[Orn]A[Orn]I[Orn]V[Orn]L[Orn]A[Orn]I[Orn]L-NH2) ; MIC against Candida albicans Y-6359 = 32 µg/mL
